testDetails: Cmax in BALB/c mouse at 3 mg/kg, iv administered as single bolus dose measured after 24 hrs by LC-MS/MS analysis
Assay type: ADME, organism-based
Set-up: dose 3 mg/kg, route intravenous
experimentalConditions: in vivo
measurementType: Cmax (ng/mL)
Please reply with the bare figure in ng/mL and do not write the unit itself.

Fill blank: measured Cmax of the compound Nc1nnc(N2CCC(N3Cc4ccccc4OC[C@@H]3Cc3ccc(Cl)cc3)CC2)[nH]1 is ____.
9500

* * *

experimentalSystem: Chitotriosidase-1 (Homo sapiens)
testDetails: Inhibition of full length recombinant C-terminal His-taged human CHIT1 expressed in CHOK1 cells assessed as reduction in chitinolytic activity using 4-methylumbelliferyl-beta-D-N,N',N''-[…] as substrate incubated for 60 mins under shaking condition by microplate fluorometry analysis
measurementType: log10 of IC50 (log10 of the value in nM)
Give log10 of IC50, with IC50 taken in nM.

Fill blank: measured log10 of IC50 of the molecule Nc1nc(N2CCC(N(CCc3ccc(Cl)cc3)Cc3ccncc3Cl)CC2)n[nH]1 is ____.
2.79

Fill blank: measured log10 of IC50 of the molecule Nc1nc(N2CCC(N(CCc3ccc(Cl)cc3)Cc3ccc(Cl)cc3)CC2)n[nH]1 is ____.
1.95

Fill blank: measured log10 of IC50 of the molecule CN(C1CCN(c2n[nH]c(N)n2)CC1)[C@H](COc1ccc(Cl)cc1)Cc1ccc(Cl)cc1 is ____.
4.20

Fill blank: measured log10 of IC50 of the molecule C=C1COC[C@H](Cc2ccc(Cl)cc2)N(C2CCN(c3nnc(N)[nH]3)CC2)C1 is ____.
2.54

Fill blank: measured log10 of IC50 of the molecule Nc1nnc(N2CCC(N3Cc4cc(F)ccc4OC[C@@H]3Cc3ccc(Cl)cc3)CC2)[nH]1 is ____.
2.97

Fill blank: measured log10 of IC50 of the molecule Nc1nc(N2CCC(N(CCc3ccc(Cl)cc3)Cc3cccc(C(F)(F)F)c3)CC2)n[nH]1 is ____.
2.49

Fill blank: measured log10 of IC50 of the molecule Nc1nnc(N2CCC(N3Cc4ccccc4OC[C@@H]3Cc3ccc(Cl)cc3)CC2)[nH]1 is ____.
2.96

Fill blank: measured log10 of IC50 of the molecule Nc1nnc(N2CCC(N3Cc4ccncc4OC[C@@H]3Cc3ccc(Cl)cc3)CC2)[nH]1 is ____.
3.64

Fill blank: measured log10 of IC50 of the molecule Nc1nc(N2CCC(N3Cc4cnccc4OC[C@@H]3Cc3ccc(Cl)cc3)CC2)n[nH]1 is ____.
4.26

* * *

testDetails: Oral bioavailability in BALB/c mouse at 10 mg/kg administered as single dose measured after 24 hrs by LC-MS/MS analysis
Assay type: ADME, organism-based
experimentalConditions: in vivo
measurementType: bioavailability (%)
Please reply with the bare figure in % and do not write the unit itself.

Fill blank: measured bioavailability of the molecule Nc1nnc(N2CCC(N3Cc4ccccc4OC[C@@H]3Cc3ccc(Cl)cc3)CC2)[nH]1 is ____.
41

* * *

testDetails: Tmax in Sprague-Dawley rat at 10 mg/kg, po administered as single dose measured after 24 hrs by LC-MS/MS analysis
Type: ADME, organism-based
experimentalConditions: in vivo
measurementType: Tmax (min)
Please reply with the bare figure in min and do not write the unit itself.

Fill blank: measured Tmax of the compound Nc1nnc(N2CCC(N3Cc4ccccc4OC[C@@H]3Cc3ccc(Cl)cc3)CC2)[nH]1 is ____.
30

* * *

testDetails: AUC(0 to infinity) in Sprague-Dawley rat at 10 mg/kg, po administered as single dose measured after 24 hrs by LC-MS/MS analysis
Type: ADME, organism-based
Parameters: dose 10 mg/kg, route oral, time infinity
experimentalConditions: in vivo
measurementType: AUC(0-inf) (ng·h/mL)
Please reply with the bare figure in ng·h/mL and do not write the unit itself.

Fill blank: measured AUC(0-inf) of the compound Nc1nnc(N2CCC(N3Cc4ccccc4OC[C@@H]3Cc3ccc(Cl)cc3)CC2)[nH]1 is ____.
22500

* * *

experimentalSystem: Chitotriosidase-1 (Homo sapiens, UniProt Q13231)
Sequence (Q13231 whole entry): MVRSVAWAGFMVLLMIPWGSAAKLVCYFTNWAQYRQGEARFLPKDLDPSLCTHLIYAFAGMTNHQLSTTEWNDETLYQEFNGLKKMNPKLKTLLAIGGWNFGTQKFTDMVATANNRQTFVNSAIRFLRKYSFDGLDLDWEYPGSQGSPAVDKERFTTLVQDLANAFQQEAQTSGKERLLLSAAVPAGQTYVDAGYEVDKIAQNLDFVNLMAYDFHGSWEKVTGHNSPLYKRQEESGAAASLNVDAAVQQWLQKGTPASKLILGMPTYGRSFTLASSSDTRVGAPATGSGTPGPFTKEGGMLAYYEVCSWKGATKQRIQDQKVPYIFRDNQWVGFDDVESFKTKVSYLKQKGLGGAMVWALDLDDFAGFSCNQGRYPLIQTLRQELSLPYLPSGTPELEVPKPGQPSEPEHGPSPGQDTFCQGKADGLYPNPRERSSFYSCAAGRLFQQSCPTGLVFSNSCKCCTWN
testDetails: Inhibition of full length recombinant C-terminal His-taged human CHIT1 expressed in CHOK1 cells assessed as reduction in chitinolytic activity using 4-methylumbelliferyl-beta-D-N,N',N''-[…] as substrate incubated for 60 mins under shaking condition by microplate fluorometry analysis
measurementType: IC50 (nM)
Please reply with the bare figure in nM and do not write the unit itself.

Fill blank: measured IC50 of the compound Nc1n[nH]c(N2CCC(N(CCc3ccc(Cl)cc3)Cc3ccccc3)CC2)n1 is ____.
122

Fill blank: measured IC50 of the compound Nc1nc(N2CCC(N(CCc3ccc(Cl)cc3)Cc3ccccc3O)CC2)n[nH]1 is ____.
49

Fill blank: measured IC50 of the compound Nc1nnc(N2CCC(N3Cc4cc(Cl)ccc4OC[C@@H]3Cc3ccc(Cl)cc3)CC2)[nH]1 is ____.
2300

Fill blank: measured IC50 of the compound CN1C[C@H](Cc2ccc(Cl)cc2)N(C2CCN(c3nnc(N)[nH]3)CC2)Cc2ccccc21 is ____.
275

Fill blank: measured IC50 of the compound Nc1nc(N2CCC(N3Cc4cccnc4OC[C@@H]3Cc3ccc(Cl)cc3)CC2)n[nH]1 is ____.
2400

* * *

experimentalSystem: Acidic mammalian chitinase (Homo sapiens)
Sequence (Q9BZP6 whole entry): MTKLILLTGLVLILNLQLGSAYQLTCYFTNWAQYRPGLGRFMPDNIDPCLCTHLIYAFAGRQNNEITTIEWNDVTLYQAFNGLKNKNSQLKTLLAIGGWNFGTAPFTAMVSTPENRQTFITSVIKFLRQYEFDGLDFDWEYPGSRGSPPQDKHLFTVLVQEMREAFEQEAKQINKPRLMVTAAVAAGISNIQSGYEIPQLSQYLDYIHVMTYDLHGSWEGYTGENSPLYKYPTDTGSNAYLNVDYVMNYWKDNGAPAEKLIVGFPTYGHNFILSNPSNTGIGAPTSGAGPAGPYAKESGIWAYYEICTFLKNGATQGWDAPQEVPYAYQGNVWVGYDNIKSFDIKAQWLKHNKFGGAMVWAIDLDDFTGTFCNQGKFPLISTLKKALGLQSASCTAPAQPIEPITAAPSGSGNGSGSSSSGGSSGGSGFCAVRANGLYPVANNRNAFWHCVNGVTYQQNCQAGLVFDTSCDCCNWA
testDetails: Inhibition of full length recombinant C-terminal His-tagged human acidic mammalian chitinase expressed in CHOK1 cells assessed as reduction in chitinolytic activity using 4-methylumbelliferyl-beta-D-N,N-diacetylchitobioside hydrate as substrate incubated for 60 mins under shaking condition by microplate fluorometry analysis
measurementType: log10(IC50) (log10 of the value in nM)
Give log10 of IC50, with IC50 taken in nM.

Fill blank: measured log10(IC50) of the compound Nc1nc(N2CCC(N(CCc3ccc(Cl)cc3)Cc3ccc(F)cc3Cl)CC2)n[nH]1 is ____.
0.70

Fill blank: measured log10(IC50) of the compound Nc1nnc(N2CCC(N3Cc4cc(Cl)ccc4OC[C@@H]3Cc3ccc(Cl)cc3)CC2)[nH]1 is ____.
0.90

Fill blank: measured log10(IC50) of the compound Nc1nc(N2CCC(N(CCc3ccc(Cl)cc3)Cc3ccc(Cl)cc3)CC2)n[nH]1 is ____.
0.60

Fill blank: measured log10(IC50) of the compound Nc1nc(N2CCC(N(CCc3ccc(Cl)cc3)Cc3cccc(O)c3)CC2)n[nH]1 is ____.
0.30

Fill blank: measured log10(IC50) of the compound Nc1nc(N2CCC(N(CCc3ccc(Cl)cc3)Cc3cccc(Cl)c3)CC2)n[nH]1 is ____.
0.78

Fill blank: measured log10(IC50) of the compound Nc1nc(N2CCC(N(CCc3ccc(Cl)cc3)Cc3cc(F)ccc3F)CC2)n[nH]1 is ____.
0.70

Fill blank: measured log10(IC50) of the compound N#Cc1ccc2c(c1)CN(C1CCN(c3n[nH]c(N)n3)CC1)[C@@H](Cc1ccc(Cl)cc1)CO2 is ____.
1.69

* * *

testDetails: Mean residence time in BALB/c mouse at 3 mg/kg, iv administered as single bolus dose measured after 24 hrs by LC-MS/MS analysis
Format: ADME, organism-based
experimentalConditions: in vivo
measurementType: MRT (min)
Please reply with the bare figure in min and do not write the unit itself.

Fill blank: measured MRT of the molecule Nc1nnc(N2CCC(N3Cc4ccccc4OC[C@@H]3Cc3ccc(Cl)cc3)CC2)[nH]1 is ____.
20.4

* * *

testDetails: AUC (0 to infinity) in BALB/c mouse at 3 mg/kg, iv administered as single dose measured after 24 hrs by LC-MS/MS analysis
Format: ADME, organism-based
Set-up: dose 3 mg/kg, route intravenous, time infinity
experimentalConditions: in vivo
measurementType: AUC(0-inf) (ng·h/mL)
Please reply with the bare figure in ng·h/mL and do not write the unit itself.

Fill blank: measured AUC(0-inf) of the compound Nc1nnc(N2CCC(N3Cc4ccccc4OC[C@@H]3Cc3ccc(Cl)cc3)CC2)[nH]1 is ____.
2900

* * *

Kindly supply the reported IC50 values for the records listed here.
experimentalSystem: Chitotriosidase-1 (Homo sapiens)
testDetails: Inhibition of full length recombinant C-terminal His-taged human CHIT1 expressed in CHOK1 cells assessed as reduction in chitinolytic activity using 4-methylumbelliferyl-beta-D-N,N',N''-[…] as substrate incubated for 60 mins under shaking condition by microplate fluorometry analysis
Parameters: species or system CHO-K1
Please reply with the bare figure in nM and do not write the unit itself.

Fill blank: measured IC50 of the compound Nc1nc(N2CCC(N(CCc3ccc(Cl)cc3)Cc3cc(F)ccc3F)CC2)n[nH]1 is ____.
277

Fill blank: measured IC50 of the compound Nc1nc(N2CCC(N(Cc3ccccc3)[C@H](CO)Cc3ccc(Cl)cc3)CC2)n[nH]1 is ____.
18000

Fill blank: measured IC50 of the compound Nc1nc(N2CCC(N(CCc3ccc(Cl)cc3)Cc3cccc(Cl)c3)CC2)n[nH]1 is ____.
176

Fill blank: measured IC50 of the compound Nc1nc(N2CCC(N(CCc3ccc(Cl)cc3)Cc3ccc(F)cc3Cl)CC2)n[nH]1 is ____.
200

Fill blank: measured IC50 of the compound CC(C)CN(CCc1ccc(Cl)cc1)C1CCN(c2nc(N)n[nH]2)CC1 is ____.
229

Fill blank: measured IC50 of the compound Nc1n[nH]c(N2CCC(N(CCc3ccc(Cl)cc3)Cc3ccccc3Cl)CC2)n1 is ____.
104

Fill blank: measured IC50 of the compound Nc1nc(N2CCC(N(CCc3ccc(Cl)cc3)Cc3cccc(O)c3)CC2)n[nH]1 is ____.
79

Fill blank: measured IC50 of the compound CN1C[C@H](Cc2ccc(Cl)cc2)N(C2CCN(c3nnc(N)[nH]3)CC2)Cc2cc(Cl)ccc21 is ____.
420

Fill blank: measured IC50 of the compound N#Cc1ccc2c(c1)CN(C1CCN(c3n[nH]c(N)n3)CC1)[C@@H](Cc1ccc(Cl)cc1)CO2 is ____.
7300
